system: murine M2-like macrophages; assay: High-content morphological screening of macrophage re-education (M1 enrichment); type: cell-based; conditions: Mus musculus, Macrophage; given as logIC50
ASSAY ENDPOINT: IC50

# STRUCTURE, MEASURED RESULT
data = [
    ("CCOCc1nc2c(N)nc3ccccc3c2n1CC(C)(C)O", "0.0145 µM"),
]
